Source listed as patent US11976069B2.

# Study target: HDAC3/SMRT heterodimer (Homo sapiens)
# Construct: FLAG (C)
# Sequence (O15379 whole entry): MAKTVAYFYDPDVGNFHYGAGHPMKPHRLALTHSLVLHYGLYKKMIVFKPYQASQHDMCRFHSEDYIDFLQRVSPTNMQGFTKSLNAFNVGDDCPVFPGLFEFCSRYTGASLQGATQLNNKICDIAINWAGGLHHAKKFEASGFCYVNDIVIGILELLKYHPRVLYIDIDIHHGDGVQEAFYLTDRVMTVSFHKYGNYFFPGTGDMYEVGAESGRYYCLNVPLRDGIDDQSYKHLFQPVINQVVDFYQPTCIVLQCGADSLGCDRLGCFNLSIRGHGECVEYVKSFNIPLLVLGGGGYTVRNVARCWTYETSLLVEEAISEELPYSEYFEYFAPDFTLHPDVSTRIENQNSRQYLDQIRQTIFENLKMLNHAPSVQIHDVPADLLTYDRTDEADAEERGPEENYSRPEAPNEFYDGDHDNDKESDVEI
# Sequence (Q9Y618 1-899 partner limits assumed): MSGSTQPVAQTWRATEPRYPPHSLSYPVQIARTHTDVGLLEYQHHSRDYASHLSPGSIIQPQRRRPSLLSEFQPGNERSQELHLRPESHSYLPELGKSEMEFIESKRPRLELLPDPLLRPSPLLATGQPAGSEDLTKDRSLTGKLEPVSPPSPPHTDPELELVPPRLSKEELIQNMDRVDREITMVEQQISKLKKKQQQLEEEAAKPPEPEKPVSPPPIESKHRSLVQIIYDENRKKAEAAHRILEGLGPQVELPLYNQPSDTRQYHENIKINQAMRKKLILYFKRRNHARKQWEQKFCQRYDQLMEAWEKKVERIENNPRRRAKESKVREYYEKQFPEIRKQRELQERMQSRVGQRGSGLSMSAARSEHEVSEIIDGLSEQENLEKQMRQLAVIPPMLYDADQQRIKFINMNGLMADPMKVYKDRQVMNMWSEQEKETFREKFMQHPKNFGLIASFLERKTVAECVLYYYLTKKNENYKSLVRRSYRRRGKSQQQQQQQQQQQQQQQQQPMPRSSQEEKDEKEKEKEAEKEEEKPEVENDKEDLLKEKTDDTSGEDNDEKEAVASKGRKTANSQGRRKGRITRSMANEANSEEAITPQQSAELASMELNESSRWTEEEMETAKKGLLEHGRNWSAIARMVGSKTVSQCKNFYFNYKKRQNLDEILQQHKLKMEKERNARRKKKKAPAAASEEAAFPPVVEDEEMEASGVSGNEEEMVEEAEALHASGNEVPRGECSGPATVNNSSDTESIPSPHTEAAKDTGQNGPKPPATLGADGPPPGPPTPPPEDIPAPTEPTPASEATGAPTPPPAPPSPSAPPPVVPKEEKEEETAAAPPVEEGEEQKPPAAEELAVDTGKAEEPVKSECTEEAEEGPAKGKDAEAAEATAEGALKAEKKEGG
# Test description: HDAC3/SMRT inhibition, modified Fluor-de-Lys assay
# Condition details: 3 h pre-incubation, 0.3 nM enzyme, 20 μM substrate BML-KI104, read-out: HDAC-3 IC50
pIC50: −log10 of the molar value.
Label label 1 for high-side pIC50 (at or above 7) and label 0 for low-side pIC50 (below it).

In [3]: df
Out[3]:
                                   molecule                           study_target  group_label
0  CCC(=O)CCCCC[C@@H]1NC(=O)[C@H]2CC23CCN(CCCCN2C4CCC2c2cc(ccc24)-c2cnc1[nH]2)CC3 (stereo partly shown)  HDAC3/SMRT heterodimer (Homo sapiens)      label 1
1  CCC(=O)CCCCC[C@@H]1NC(=O)[C@H]2CC23CCN(CCCCCCCCn2ccc4cc(ccc4c2=O)-c2cnc1[nH]2)CC3  HDAC3/SMRT heterodimer (Homo sapiens)      label 1
2  CCC(=O)CCCCCC1NC(=O)C2CC2N2CCC(CCCCCn3c(=O)ccc4cc(ccc43)-c3cnc1o3)CC2 (stereo not shown)  HDAC3/SMRT heterodimer (Homo sapiens)      label 1
3  CCC(=O)CCCCC[C@@H]1NC(=O)CN(C)CCCCOCCCCn2ccc3cc(ccc3c2=O)-c2cnc1[nH]2  HDAC3/SMRT heterodimer (Homo sapiens)      label 0
4  CCC(=O)CCCCC[C@@H]1NC(=O)[C@H]2CC23CCN(CCCCN2C4CCC2c2c(cccc24)-c2cnc1[nH]2)CC3 (stereo partly shown)  HDAC3/SMRT heterodimer (Homo sapiens)      label 1
5  CCC(=O)CCCCC[C@@H]1NC(=O)[C@H]2CC23CCN(CCCCCCCCn2ccc4cc(c(OC)cc4c2=O)-c2cnc1[nH]2)CC3  HDAC3/SMRT heterodimer (Homo sapiens)      label 1

====

Entries annotated with measured IC50
# Study target: HDAC2 (Homo sapiens, UniProt Q92769)
# Construct: Full length human HDAC2-FLAG was expressed in baculovirus infected Sf9 cells; FLAG (C); host or cells: baculovirus infected Sf9 cells
# Sequence (Q92769 whole entry): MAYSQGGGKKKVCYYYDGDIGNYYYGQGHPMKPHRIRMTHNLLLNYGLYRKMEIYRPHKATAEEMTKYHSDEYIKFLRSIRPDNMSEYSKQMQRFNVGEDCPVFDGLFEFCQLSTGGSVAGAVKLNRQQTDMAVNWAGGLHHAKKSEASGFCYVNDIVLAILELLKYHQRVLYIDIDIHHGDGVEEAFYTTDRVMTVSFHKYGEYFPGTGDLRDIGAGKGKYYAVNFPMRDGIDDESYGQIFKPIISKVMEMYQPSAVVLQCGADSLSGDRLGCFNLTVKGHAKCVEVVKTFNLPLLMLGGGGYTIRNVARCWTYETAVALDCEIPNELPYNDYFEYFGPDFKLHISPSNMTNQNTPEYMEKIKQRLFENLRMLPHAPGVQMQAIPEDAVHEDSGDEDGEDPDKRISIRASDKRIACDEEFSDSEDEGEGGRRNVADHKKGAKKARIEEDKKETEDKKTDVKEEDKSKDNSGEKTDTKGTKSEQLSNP
# Test description: HDAC2 inhibition, modified Fluor-de-Lys assay
# Assay type: biochemical
# Condition details: 3 h pre-incubation, […] enzyme, 40 μM substrate BML-KI104; read-out: HDAC-2 IC50
# Description: Human HDAC Enzyme Inhibitor FLUOR-DE-LYS Assay Materials Recombinant human HDAC1, HDAC2, and HDAC3/SMRT heterodimer were prepared by Merck Research Laboratories. […] The eluted protein was then passed over an anti-HDAC1 immunoaffinity column to remove any complexes containing HDAC1. […] The histone deacetylase activities of HDAC1, HDAC2, HDAC3, HDAC6, and HDAC8 were measured in modified Fluor-de-Lys assays in 384-well format. […] The released AMC is then detected by its fluorescence. […]
Property measured: IC50 (nM)

>>> print(df.to_string())
                                   compound  reported_value
0  CCC(=O)CCCCC[C@H](NC(=O)[C@H]1CC12CCN(CC)CC2)c1[nH]c2nc1C(=O)NCCC/C=C/c1cccc-2c1 [Compound 15]             223
1  CCC(=O)CCCCC[C@H](NC(=O)[C@H]1CC12CCN(CC)CC2)c1[nH]c2nc1C(=O)NCCC/C=C\c1cccc-2c1 [Compound 14]             572
2  CCC(=O)CCCCC[C@@H]1NC(=O)[C@H]2CC23CCN(CCOCCn2ccc4cc(ccc4c2=O)-c2cnc1[nH]2)CC3 [Compound 4]              35
3  CCC(=O)CCCCC[C@@H]1NC(=O)CN(C)CCCCOCCCCn2ccc3cc(ccc3c2=O)-c2cnc1[nH]2 [Compound 6]             595
4  CCC(=O)CCCCC[C@@H]1NC(=O)[C@H]2CC23CCN(CCCCCCCCn2ccc4cc(ccc4c2=O)-c2cnc1[nH]2)CC3 [Compound 1]            0.43
5  CCC(=O)CCCCC[C@@H]1NC(=O)[C@H]2CC23CCN(CCCCCOc2ccc4cc(ccc4n2)-c2cnc1o2)CC3 [Compound 9]             335
6  CCC(=O)CCCCCC1NC(=O)C2CC2N2CCC(CCCCCn3c(=O)ccc4cc(ccc43)-c3cnc1o3)CC2 (stereo not shown) [Compound 7]             260
